These entries and their values trace back to patent US4250183A.

Measured LD50 at 336 h, listed per entry.
- Protocol details: in vivo;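 also: mice received several intraperitoneal dose levels, five animals per level, and were followed for 14 days to estimate the lethal dose for half the animals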
- Run parameters: mouse, ip
Readout: LD50 at 336 h (mg/kg)

chemical_string=CCc1cccc(CC)c1N(CCCC(=O)O)C(=O)CCN(C(C)=O)c1c(C)cccc1C unit_annotation=mg/kg numeric_result=280
chemical_string=CCc1cccc(C)c1N(CCCC(=O)O)C(=O)CCN(C(C)=O)c1c(C)cccc1C unit_annotation=mg/kg numeric_result=430
chemical_string=COc1ccc(N(CCCC(=O)O)C(=O)[C@H](CCSC)NC(=O)c2ccc(Cl)cc2)cc1 unit_annotation=mg/kg numeric_result=700
chemical_string=Cc1cccc(C)c1N(CCCC(=O)O)C(=O)CCCN(C(=O)c1ccc(Cl)cc1)c1c(C)cccc1C unit_annotation=mg/kg numeric_result=130
